Test system: SNB-19 CNS
Assay: NCI-60 one-dose screen, 48 h (100 = growth as untreated, 0 = no growth, -100 = all killed)
Conditions: 10 µM unless noted
Description: Growth inhibition of the SNB-19 human tumor cell line is measured as a screen for anti-cancer activity. Cells are grown in 96 well plates and exposed to the test compound for 48 hours. Compounds are tested at a single concentration, which is 10^-5 M for most compounds. The reported endpoint is percent growth (GI% or GIPRCNT), where numbers from 0 - 100% represent growth inhibition, and numbers from -100% - 0 represent cell death. For example, a value of 40 represents 60% growth inhibition. […]
About 83,000 compounds went through this panel and 20% of them were active in at least one assay; those are over-represented in the sample as a whole.
The following compounds are listed with their measured growth values.
Express your answer in %, writing the number without its unit.

structure-smiles-string: COc1cc(OC)cc(C(=O)C[n+]2cccc3cc[nH]c32)c1
unit-annotation: %
growth: 93.1

Request the reported growth associated with Cc1cc2cc3ccc(N(C)C)cc3nc2cc1N -4.5

Query O=C(Nc1ccc(-c2ccc3c(c2)NC(=O)/C3=C\c2ccc[nH]2)cc1)NC1CC1 next 92.6

Record: COc1ccc(NC(=O)c2cc(NCc3cc(O)ccc3O)ccc2O)cc1 90

Again, but for CC1(C)c2[nH]c3ccccc3c2C[C@]2(C)[C@H]3C(=O)C=C4[C@@H]5C[C@@](C)(C(N)=O)CC[C@]5(C)CC[C@@]4(C)[C@]3(C)CC[C@@H]12 78.6

Try the compound COc1cc2c(c(O)c1Cl)C(=O)c1c(O)cc(C[C@H](C)O)cc1[C@H]2[C@H]1c2cc(C[C@H](C)O)cc(O)c2C(=O)c2c1cc(OC)c(Cl)c2O 18

Could you do the same for O=S(=O)(NCCNc1nccc(-c2c(-c3cccc(O)c3)nc3occn23)n1)c1ccccc1 , please? 94.8

Follow-up entry: CSc1nc2sc3cccc(Cl)c3n2c(=N)c1C#N 109

Repeat for the following compound: CCCCNC(=O)Oc1ccc(/C(=C(\C)c2ccccc2)c2ccc(OCCN3CCCCC3)cc2)cc1 71.5

* * *

system: NCI-H522 lung; experiment: NCI-60 one-dose screen, 48 h; conditions: 10 µM unless noted
The panel holds about 83,000 compounds, 20% with a hit somewhere; the sample as a whole holds those more often. Calls of active or inactive are those of the source. How the source made its calls: active means growth percent below 10; inactive means the rest.
Lab note: assign the record to one of yes (1) (active), no (0) (inactive)

Solved cases (4 shown):
molecule: O=C(CCN1CCCC1)Nc1ccc2c(NCCCCc3ccccc3)c3ccccc3nc2c1
group-label: yes (1)

molecule: COc1cc(C=O)ccc1OC1OC(COC(C)=O)C(OC(C)=O)C(OC(C)=O)C1OC(C)=O (stereo not given)
group-label: no (0)

molecule: O=S(=O)(NCCCNc1nccc(-c2c(-c3cccc(O)c3)nc3occn23)n1)c1ccc(Cl)cc1
group-label: no (0)

molecule: Cn1ccc2c1CC1CN(Cc3ccco3)C(=O)C1C2C(=O)O (stereo not given)
group-label: no (0)

With those in mind, consider the next molecule.
Field: outcome | Entry: COc1cc(NCCCCCNC(C)(C)C)c2ncccc2c1 no (0)

* * *

test system: OVCAR-4 ovarian; assay: NCI-60 one-dose screen, 48 h (100 = growth as untreated, 0 = no growth, -100 = all killed); settings: 10 µM unless noted
This is part of a sample that, as a whole, favours compounds with a hit. Of some 83,000 tested, about 20% had one in any assay.
readout: growth (%)
Response body: numeric value in %, unit text excluded.

molecule: COc1cc2oc(-c3cccc(C(=O)Nc4ccc(Br)cc4)c3)cc(=O)c2c(OC)c1OC
growth, %: 57.6

molecule: CCOC(=O)/C(C#N)=C1/NNC(=Nc2cccnc2)S1
growth, %: 100

Which growth reading was recorded for the molecule CCOC(=O)C1=C(CCl)NC(=O)NC1c1ccc2c(c1)OCO2 (stereo not given) ? 32.5

# repeat for CCN1C(=O)N(CC)C2Nn3c(s/c(=C\c4ccc(OC)cc4)c3=O)=NC21 (stereo not given) 63.7

Quick one: Cc1nc(N)nc(N[C@@H](C)c2nc3cccc(NCc4ccc(C(=O)NO)cc4)c3c(=O)n2-c2ccccc2)n1 92.2

* * *

system: ACHN renal; experiment: NCI-60 one-dose screen, 48 h (100 = growth as untreated, 0 = no growth, -100 = all killed); details: 10 µM unless noted
The panel holds about 83,000 compounds, 20% with a hit somewhere; the sample as a whole holds those more often.
Label y when growth is strictly below 90%; at or above that, label n.

Here are 5 compounds together with their reported answers.
compound: NC1=NN=C(N)C1=Cc1cc2ccccc2n2nnnc12
group-label: n
//
compound: c1ccc(-c2c(-c3ccccc3)[n+](Cc3ccc4ccccc4c3)c(-c3cccc4ccccc34)n2Cc2ccc3ccccc3c2)cc1
group-label: y
//
compound: O=C1C=CC(=O)N1c1cccc(Cl)c1
group-label: n
//
compound: CC1=C(C(=O)/C=C/c2c[nH]c3ccccc23)C(c2ccccc2)NC(=S)N1 (stereo not given)
group-label: n
//
compound: COc1cccc(/C=N/NC(=O)c2cnn3c2NC(c2ccccc2)C3)c1Oc1ccccc1 (stereo not given)
group-label: y

I'd appreciate it if you could check whether COc1ccc(C(=O)CC#N)cc1 has growth smaller than 90%. n

Entry to check: O=C1Nc2cc(-c3cccc(O)c3)ccc2/C1=C/c1ccc[nH]1 y

* * *

system: SK-MEL-5 melanoma; assay: NCI-60 one-dose screen, 48 h; settings: 10 µM unless noted
Compounds without any hit were thinned out: in the full panel of roughly 83,000, 20% have a hit. Activity calls are given as the source filed them. Rule for the calls: active = growth percent below 10; inactive = the rest.
Allowed answers: active, inactive

Test call for this compound, please: O=S(=O)(NCCNc1nccc(-c2c(-c3cccc(F)c3)nc3sccn23)n1)c1ccccc1 inactive

* * *

test system: OVCAR-8 ovarian; experiment: NCI-60 one-dose screen, 48 h; details: 10 µM unless noted
Compounds without any hit were thinned out: in the full panel of roughly 83,000, 20% have a hit. Activity calls are given as the source filed them. How the source made its calls: active means growth percent below 10; inactive means the rest.
Hi there, use one of these labels in your reply, thanks! active, inactive

compound: Cn1c(-c2c(N)n(CCCN3CCOCC3)c3nc(C#N)c(C#N)nc23)nc2ccccc21
group-label: inactive

How was CC(c1ccccc1)C(C(=O)c1ccccc1)c1ccccc1 (stereo not given) classified in this test? inactive

Now the same for Cc1cccc(C)c1N=c1oc2ccc(Cl)cc2nc1-c1ccccc1O inactive

Same thing, different compound: CCOC(=O)c1nc2c3ccccc3ccn2c1C(=O)OCC inactive

And c1ccc(-c2c(-c3ccccc3)[n+](Cc3ccc4ccccc4c3)c(-c3cccc4ccccc34)n2Cc2ccc3ccccc3c2)cc1 ? active

* * *

system: SK-MEL-28 melanoma; assay: NCI-60 one-dose screen, 48 h (100 = growth as untreated, 0 = no growth, -100 = all killed); conditions: 10 µM unless noted
Compounds without any hit were thinned out: in the full panel of roughly 83,000, 20% have a hit. Activity calls are given as the source filed them. Rule for the calls: active = growth percent below 10; inactive = the rest.
readout: growth

Example entries begin here.
compound: OC(c1ccc(F)c(C(F)(F)F)c1)c1cnccc1NC1CCCCC1 (stereo not drawn)
val: 84.8% (inactive)

compound: O=C(Cc1ccc(/C=C/C(=O)c2ncc[nH]2)cc1)Nc1ccc(Cl)cc1
val: 67.9% (inactive)

compound: COc1cc(NC(=O)CSc2nc3ccc(C)cc3c(=O)n2Cc2ccccc2)cc(OC)c1OC
val: 75.1% (inactive)

Please give the measured growth for this compound: CC(=O)O[C@H]1Cc2c([nH]c3ccccc23)[C@@H](c2ccc(Cl)cc2)N1C(=O)CCNC(C)(C)C 8.92% (active)

Input COc1cc(/C=C2\COc3ccc(-c4ccccc4)cc3C2=O)cc(OC)c1 97.7% (inactive)

Entry to check: Oc1ccc(C2c3ccccc3Oc3ccccc32)c2cccnc12 36% (inactive)

Cc1ccc(NC(=O)Cc2ccc(/C=C/C(=O)c3ncc[nH]3)cc2)cc1 ? 86.9% (inactive)

* * *

system: SF-295 CNS; assay: NCI-60 one-dose screen, 48 h (100 = growth as untreated, 0 = no growth, -100 = all killed); conditions: 10 µM unless noted
The panel holds about 83,000 compounds, 20% with a hit somewhere; the sample as a whole holds those more often.
readout: growth (%)
Kindly provide the numeric value in % only, without the unit symbol.

Please review the following examples before continuing.
compound: O=S(=O)(NCCNc1nccc(-c2c(-c3cccc(O)c3)nc3occn23)n1)c1cccc(F)c1
unit-annotation: %
val: 106
//
compound: CN(C)CC(O)c1ccc(/C=C/c2ccc(Cl)cc2)cc1 (stereo unspecified)
unit-annotation: %
val: -48.2
//
compound: c1ccc2c(-c3nccs3)c[nH]c2c1
unit-annotation: %
val: 101
//
compound: O=C(Nc1ccccc1C(=O)N/N=C(\c1ccccc1)c1ccccn1)c1ccc(F)cc1
unit-annotation: %
val: 20.9

growth lookup needed for O=c1c2c(c(=O)n1O)c1c3ccc[nH]c3nc1c1nc3[nH]cccc3c12 , thanks. 96

CCCCC/C=C/C(C)=C/C1CC(C)C/C=C/CCC(O)C(OC(N)=O)CCC(C)CC(O)C(C)C(=O)O1 (stereo unspecified) ? 59.2

Now the compound O=C1/C=C/[C@@H](O)[C@@H]2C[C@@H](O)C[C@H]2/C=C/CCC[C@H](CCc2ccc3ncccc3c2)O1 1.79

Same for COc1ccc2c(c1)C(=O)CC(c1ccccc1OC)O2 (stereo unspecified) 101

// next record CCOC(=O)c1cc(C(=O)c2ccc(OC)c(OC)c2)n2c1ccc1ccccc12 96.9

Same for COc1ccc(C(=O)c2cc(C)c(OC)c(C)c2)c(OC)c1OC(=O)C(Cl)Cl 14.5

Then what about the compound CCCCCN1C=C/C(=C\C(=O)N(C)c2ccc(OC(F)(F)F)cc2)c2ccccc21 ? 93

FYI, the data here is from PubChem BioAssay (NCI).
